- METHOD: A quantitative high throughput screen for small molecules that induce DNA re-replication in MCF 10a normal breast cells. Further: nearly all actives have a fitted effect of over 50% in size.
- EXPERIMENTAL_PARAMETERS: MCF 10A DNA re-replication, Hoechst nuclear intensity, 48 h; series mostly up to 46.1 µM
About 9,900 (2.8%) of roughly 350,000 compounds were called active. Another 15% or so got no clear call; they are omitted. The call rests on the fitted dose curve; in most records, active means well fitted activation curve with a large enough effect; inconclusive means small, poorly fitted or top-dose-only effect; inactive means no such curve, though single readings can be large or run the other way. The sample as a whole holds a higher share of actives than the screen did.
Log the outcome using a class from class 1 (active), class 0 (inactive)

Recorded test call requested for CCN1C[C@@H]2[C@@H]3C(=O)N(C)C(=O)[C@@H]3[C@](C)(C1=O)N2C(=O)c1ccccc1
class 0

State the result this test recorded for Cc1cccc(NC(=O)C2CCCN2S(=O)(=O)c2ccc(F)cc2)c1C (stereo not given) .
class 0

Fill in: this test's call for COc1cc(OC)cc(-c2c(C#Cc3ccsc3)c3cc(-c4ccc(OC)cc4F)ccc3n2C)c1 is ___
class 1

Test call, this compound: COc1cccc(-c2cc(C(=O)N/N=C/c3ccc(OC)c(COC(C)=O)c3)c3ccccc3n2)c1
class 0

# fetch the recorded call for CCOc1ccc(C(=O)Nc2cc(OC)ccc2OC)cc1 here
class 0

Hi, do you know how Cc1cc(=O)n2[nH]c(-c3cccc(Cl)c3)cc2n1 came out in this test?
class 0

How did this test come out for CC(=O)c1ccc(S(=O)(=O)NCCC(=O)N2CCN(c3ccccn3)CC2)cc1 ?
class 0

Answer briefly: the call reported for CCOC(=O)C1=C(c2ccc(OC)cc2)C(=O)c2ccccc2C1=O in this assay.
class 1

# outcome recorded in this test, key = c1ccc(-c2nnc(N3CCOCC3)c3ccccc23)cc1
class 0

Please indicate how the test categorized CCN(C(=O)COC(=O)CCOc1cccc(C)c1)c1c(N)n(Cc2ccccc2)c(=O)[nH]c1=O .
class 0

Tell me the recorded outcome of this test for CN(CC(=O)Nc1ccc(Cl)c(C(F)(F)F)c1)C(=O)CCC(=O)c1ccccc1 .
class 0

Which outcome did this test record for the compound COC1=NC2=NCCN2C(OC)=N1 ?
class 0

Tell me the assay call for CC(C)(C)c1ccc(C(=O)NCCn2c(N)c(C#N)c3nc4ccccc4nc32)cc1 please.
class 1

Just curious, what result did CCOc1ccccc1-c1cc(C(=O)N2CCOCC2)c2ccccc2n1 get here?
class 0

Please indicate how the test categorized CCOc1cc(NC(=O)c2ccccn2)c(OCC)cc1NC(=O)c1ccc(OC)cc1 .
class 1

Could you kindly confirm the outcome this assay logged for O=C(Nc1ccc(Cl)cc1)c1cc2nc(C3CC3)cc(C(F)(F)F)n2n1 ?
class 1

Would you mind telling me which call this test gave CCOC(=O)/C(C#N)=C/c1cn(CCC(=O)O)nc1-c1ccc(Br)cc1 ?
class 0

How was O=C1CCCc2c1nc(-c1cccc(Cl)c1)n2O classified in this test?
class 1

In this assay, the call recorded for O=C(Nc1ccc2c(c1)OCO2)C1CC1(Cl)Cl (stereo not given) was what?
class 0

Could you check what this test reported for Cc1ccccc1-c1cc(C(=O)NCC2CC2)n(CC2CC(c3cccnc3)=NO2)n1 (stereo not given) ?
class 0

How was CC1CN(Cc2ccco2)C(=S)N(c2ccccc2)C1=O (stereo not given) classified in this test?
class 0

Hi, do you know how O=C(NCC1CCCCC1)NCC1CCCCC1 came out in this test?
class 0

Check the results log: what was the call for CCOC(=O)CSc1ncc(-c2cccc(Cl)c2)cn1 ?
class 0

Would you mind telling me which call this test gave Cc1cc(NCc2ccco2)n2c(nc3ccccc32)c1C#N ?
class 1

Recorded call for CCOC(=O)C(CO)NC(=O)C1(NC(C)=O)CCCC1 (stereo not given) ?
class 0

Query: recorded result category for CC(C)c1nnc(NC(=O)C2CCCN2S(=O)(=O)c2ccc(Cl)cc2)s1 (stereo not given) in this test
class 0

For CCCCNS(=O)(=O)CCNCc1ccccc1OC , which call appears in the assay record?
class 0

So what was the verdict on COc1ccccc1-c1sc2ccccc2c1C#CC1(O)CCCCC1 in this test?
class 1

Answer briefly: the call reported for COc1cc(OC)cc(-c2c(C#Cc3ccsc3)c3cc(-c4ccc(SC)cc4)ccc3n2C)c1 in this assay.
class 0

Query: recorded result category for NS(=O)(=O)c1ccc(CNC(=S)NC(=O)c2ccco2)cc1 in this test
class 0

Hi, sorry to bother you, what did the test record for COc1ccc(C(=O)NCc2ccccc2C)cc1S(=O)(=O)NC1CCCC1 ?
class 0

Query: recorded result category for CC1CCN(C(=O)c2cc3nc(C4CC4)cc(C(F)(F)F)n3n2)CC1 in this test
class 0

What outcome does the record of this test show for COc1ccc(C2=NN(c3ccccc3)C(c3cccs3)C2)cc1 (stereo not given) ?
class 1

In this assay, the call recorded for O=C(c1ccccc1)c1ccc(OCC(O)CN2CCCC2)cc1 (stereo not given) was what?
class 0

// outcome(item) with item = O=C(c1snnc1-c1ccccc1)N1CCOCC1
class 1

Recorded test call requested for CCN(CC)S(=O)(=O)c1ccc(N2CCOCC2)c(NC(=O)C(C)Oc2ccc(F)cc2)c1 (stereo not given)
class 0

Assay result, entry C=CCNC(=O)c1cc2nc(C3CC3)cc(C(F)F)n2n1 — outcome?
class 0

Per the assay record, what outcome was assigned to COc1ccccc1C(CNC(=O)c1cccc(S(=O)(=O)Nc2ccc(F)cc2)c1)N(C)C (stereo not given) ?
class 0

I would be grateful if you could indicate the recorded call for COc1cc(/C=C/C(=O)OCC(=O)NC2CC2)cc(OC)c1OC .
class 0

Field: outcome | Entry: CCCN(C(=O)CSc1nnc(N)s1)c1c(N)n(Cc2ccccc2)c(=O)[nH]c1=O
class 0

Field: outcome | Entry: CC(=O)Nc1cccc(C(=O)Nc2nc(C)cs2)c1
class 0

Any idea what this test logged for OC(COc1ccc(Br)cc1)CN1CCCC1 (stereo not given) ?
class 0

Outcome? CCOc1cccc(/C=C/c2ccc3ccccc3n2)c1OC(C)=O
class 1

What is the recorded call for this compound in the test? COc1ccccc1NC(=O)C1CCCN1S(=O)(=O)c1ccc(Cl)cc1 (stereo not given)
class 1

Dear colleague, could you share the recorded outcome for O=c1c2cc(Br)ccc2nc(-c2cccc(Cl)c2)n1O when you have a moment?
class 1

###

- METHOD: A quantitative high throughput screen for small molecules that induce DNA re-replication in MCF 10a normal breast cells. Further: nearly all actives have a fitted effect of over 50% in size.
- EXPERIMENTAL_PARAMETERS: MCF 10A DNA re-replication, Hoechst nuclear intensity, 48 h; series mostly up to 46.1 µM
Hit rate of the full screen: of about 350,000 compounds, about 9,900 (2.8%) were called active. Inconclusive results (about 15%) are left out. The call rests on the fitted dose curve; in most records, active means well fitted activation curve with a large enough effect; inconclusive means small, poorly fitted or top-dose-only effect; inactive means no such curve, though single readings can be large or run the other way. This is one part of a sample in which actives are shown more often than they occur.
Answer with one of the outcomes given here: active, inactive

What did this assay record as the result for CC[C@]12c3[nH]c4ccc(Cl)cc4c3CCN1C(=O)[C@@H](CC(=O)NCCN1CCOCC1)C[C@@H]2C(=O)N1CCN(C(=O)C2CC2)CC1 ?
inactive

Look up the recorded call for CC(=O)Nc1ccc(/C=N/Nc2ccc(C(=O)c3c(C)cc4ccccn34)cc2[N+](=O)[O-])cc1 in this test.
inactive

Answer briefly: the call reported for COc1ccccc1C(=O)OCC(=O)Nc1cccc(S(=O)(=O)NC2=NCCCCC2)c1 in this assay.
active

For this molecule, state the assay outcome: COc1ccc(OCCCC(=O)Nc2cccc(S(=O)(=O)N3CCCCCC3)c2)cc1
inactive

Entry CCc1ccc(C(=O)OCC(=O)Nc2cccc(S(=O)(=O)NC3=NCCCCC3)c2)cc1 : call = ?
inactive

Returns: the outcome recorded for Cc1cc(C)n2nc(C(=O)Nc3cccc(S(=O)(=O)N4CCOCC4)c3)nc2n1 in this assay.
inactive

Assay outcome for CCC1(CC)NC(=O)N(CC(=O)OCC(=O)c2cc(C)c(C)cc2C)C1=O : what was it?
inactive

Any idea what this test logged for CCOC(=O)N1CCN(CCC(=O)Nc2cc(OC)ccc2OC)CC1 ?
inactive

# fetch the recorded call for Cc1ccccc1N1CCN(S(=O)(=O)c2ccc3ccccc3c2)CC1 here
inactive

Assay result, entry Cc1ccc(S(=O)(=O)N2CCN(c3ccccc3)CC2)cc1C — outcome?
inactive

Outcome? C/C(=N\NC(=O)c1cc(-c2ccc(O)cc2)nc2ccccc12)c1cccnc1
inactive

Per the assay record, what outcome was assigned to CC(C)N(Cc1nnc(-c2ccccc2Br)o1)C(=O)c1cc(Cl)nc2ccccc12 ?
inactive

// param item: O=C(N/N=C\c1cccnc1)c1cc(-c2ccccc2)nc2c(Cl)cccc12 ; yields the recorded call
active

Which result was noted for this molecule in the test: CCN(CC)S(=O)(=O)c1ccc(CNC(=O)CN2C(=O)NC3(CCc4ccccc43)C2=O)cc1 (stereo unspecified)
inactive

Lab log entry: CC(=O)NCCC(=O)Nc1nc(C)c(Cc2ccc3c(c2)OCO3)s1 — outcome as called in the assay?
inactive

Please let me know the test result on file for Cc1cc(N2CCN(S(=O)(=O)c3ccc(C)c(C)c3)CC2)c2ccccc2n1 .
active

Tell me the assay call for COc1cc(OC)cc(-c2c(-c3cccs3)c3cc(-c4ccc(OC)nc4)ccc3n2C)c1 please.
inactive

How did this test come out for CC(C)CCN1CCN=C1N(C)C ?
inactive

Which outcome was entered for the molecule COc1ccc(Cl)cc1NC(=O)CCN1CCOCC1 in this test?
inactive

Please share the test call associated with COc1ccc(OC)c(NC(=O)CCN2CCC(C)CC2)c1 .
active

Give the logged outcome of this assay for the following molecule: O=C(COC(=O)c1cc(S(=O)(=O)N2CCOCC2)ccc1F)NC1CC1
inactive
